From: patent US20020137929A1

tested on: ORYSAT (Rice, Tebonnet); experiment: Postemergence herbicidal evaluation; type: in vivo, Oryza sativa, (L.) Tebonnet; conditions: postemergence, rate 0.0625 kg/ha
Label 1 when Herbicidal rating ORYSAT is strictly below 3; otherwise label -1.

> print(dat)
                                   compound  class.label
1  CC(C)N1C(=O)CSC1=Nc1cc(-n2c(=O)cc(C(F)(F)F)n(C)c2=O)c(F)cc1Cl           -1
2  Cn1c(C(F)(F)F)cc(=O)n(-c2cc(N=C3SCC(=O)N3Cc3cccc(Cl)c3)c(Cl)cc2F)c1=O            1
3  Cn1c(C(F)(F)F)cc(=O)n(-c2cc(N=C3SCC(=O)N3Cc3ccc(F)cc3)c(Cl)cc2F)c1=O           -1

Turning now to a further compound:
hey, is Herbicidal rating ORYSAT for C=CCN1C(=O)C(CC(=O)NS(=O)(=O)c2ccccc2)SC1=Nc1cc(-n2c(=O)cc(C(F)(F)F)n(C)c2=O)c(F)cc1Cl (stereo not shown) lower than 3 or not?
-1

---

herbicidal effect rating, ORYSAT (rice tolerance) listing for selected compounds.
system: ORYSAT (Rice, Tebonnet); test: Rice tolerance to post-transplant applications, flooded paddy conditions (Table III); format: in vivo, Oryza sativa, (L.) Tebonnet; details: in vivo
Form rule: numeric answer, no unit written next to it.

> print(dat)
                                   compound                tested.on  numeric.readout
1  Cc1ccc(CN2C(=O)CSC2=Nc2cc(-n3c(=O)cc(C(F)(F)F)n(C)c3=O)c(F)cc2Cl)cc1Cl  ORYSAT (Rice, Tebonnet)              0.0
2  CCOC(=O)CN1C(=O)C(C(=O)OC(C)(C)C)SC1=Nc1cc(-n2c(=O)cc(C(F)(F)F)n(C)c2=O)c(F)cc1Cl (stereo not drawn)  ORYSAT (Rice, Tebonnet)              4.0
3  COC(=O)C(C)OC(=O)CN1C(=O)CSC1=Nc1cc(-n2c(=O)cc(C(F)(F)F)n(C)c2=O)c(F)cc1Cl (stereo not drawn)  ORYSAT (Rice, Tebonnet)              2.0
4  CN(C)c1ccc(CN2C(=O)CSC2=Nc2cc(-n3c(=O)cc(C(F)(F)F)n(C)c3=O)c(F)cc2Cl)cc1  ORYSAT (Rice, Tebonnet)              3.0
5  CCOC(=O)CN1C(=O)C(COC)SC1=Nc1cc(-n2c(=O)cc(C(F)(F)F)n(C)c2=O)c(F)cc1Cl (stereo not drawn)  ORYSAT (Rice, Tebonnet)              3.0

Field: next compound
Assign herbicidal effect rating, ORYSAT (rice tolerance) to the following record: "Cn1c(C(F)(F)F)cc(=O)n(-c2cc(N=C3SCC(=O)N3Cc3ccc(C(F)(F)F)cc3)c(Cl)cc2F)c1=O"
0.0

---

system: AMBEL (Ragweed, Common); test: Preemergence herbicidal evaluation; type: in vivo, Ambrosia artemisifolia; settings: rate 0.0625 kg/ha; rated 4-5 weeks after treatment
MEASURED_QUANTITY: Preemergence herbicidal rating AMBEL
Enter a number only.

> print(dat)
                                   molecule  numeric.readout
1  C#CCOC(=O)CN1C(=O)CSC1=Nc1cc(-n2c(=O)cc(C(F)(F)F)n(C)c2=O)c(F)cc1Cl [Compound 115]              0.0
2  CC(C)S(=O)(=O)NC(=O)CC1SC(=Nc2cc(-n3c(=O)cc(C(F)(F)F)n(C)c3=O)c(F)cc2Cl)N(C)C1=O (centres unmarked) [Compound 119]              0.0
3  COC(=O)CCCN1C(=O)CSC1=Nc1cc(-n2c(=O)cc(C(F)(F)F)n(C)c2=O)c(F)cc1Cl [Compound 29]              0.0
4  C=CCN1C(=O)C(CC(=O)OC)SC1=Nc1cc(-n2c(=O)cc(C(F)(F)F)n(C)c2=O)c(F)cc1Cl (centres unmarked) [Compound 64]              7.0
5  C#CCOC(=O)CC1SC(=Nc2cc(-n3c(=O)cc(C(F)(F)F)n(C)c3=O)c(F)cc2Cl)N(CC=C)C1=O (centres unmarked) [Compound 67]              3.0
6  Cn1c(C(F)(F)F)cc(=O)n(-c2cc(N=C3SCC(=O)N3CC(=O)OC(C)(C)C)c(Cl)cc2F)c1=O [Compound 43]              0.0

Look up Preemergence herbicidal rating AMBEL of COC(=O)COC(=O)CN1C(=O)CSC1=Nc1cc(-n2c(=O)cc(C(F)(F)F)n(C)c2=O)c(F)cc1Cl [Compound 108] and report it.
0.0

Name the recorded Preemergence herbicidal rating AMBEL of the molecule listed here: CCOC(=O)CN1CC(=O)N(CC(=O)OCC)C1=Nc1cc(-n2c(=O)cc(C(F)(F)F)n(C)c2=O)c(F)cc1Cl [Compound 34]
4.0

Specify measured Preemergence herbicidal rating AMBEL for COC(=O)C(C)OC(=O)CN1C(=O)CSC1=Nc1cc(-n2c(=O)cc(C(F)(F)F)n(C)c2=O)c(F)cc1Cl (centres unmarked) [Compound 116] .
2.0

Kindly indicate its recorded Preemergence herbicidal rating AMBEL. Item: Cc1ccccc1CN1C(=O)CSC1=Nc1cc(-n2c(=O)cc(C(F)(F)F)n(C)c2=O)c(F)cc1Cl [Compound 129]
0.0

Note Preemergence herbicidal rating AMBEL for the molecule shown: CCOC(=O)CN1C(=O)C(CC(=O)Nc2ccccc2)SC1=Nc1cc(-n2c(=O)cc(C(F)(F)F)n(C)c2=O)c(F)cc1Cl (centres unmarked) [Compound 68]
0.0
